assay: protein stability index of a GFP-peptide fusion (GPS, HEK-293T) (PSI 1-6); higher = more stable; details: treatment: MLN4924 1 uM, 8 h; c terminus: a fixed tail appended;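 also: 24-mer peptide tiles fused after GFP, lentivirally expressed, FACS-sorted into six equal bins by GFP/DsRed ratio, decoded by Illumina sequencing, PSI is the read-weighted mean bin number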
Hi there, I'd appreciate the recorded protein stability index for every entry that follows.
Write the value as a bare number.

Query string: Recorded protein stability index of PMKKNNNLYSWDDFMELGRSIPDT [ACSBG2] , please.
Result string: 3.77

Query string: Need protein stability index of VVKRREGPAGHSKGELAPELGEEP [POLD4] , thanks.
Result string: 5.14

Query string: Quick one: protein stability index of YTATEQEMQQQMSLGELCHPVPLS [TRIM14] ?
Result string: 4.14

Query string: Consider the sequence SEHFKTTSQKVARKFWWKNVKMIV [VAMP8] and give its measured protein stability index.
Result string: 2.61

Query string: Value lookup for protein stability index; key = RDILVEADGAWVVKMFYSFQDKRN [STK38L]
Result string: 2.3

Query string: Recorded protein stability index of FGTQVENFSTFIKCIFTQFRIILG [PKD2L1] , please.
Result string: 2.24

---

assay: protein stability index of a GFP-peptide fusion (GPS, HEK-293T) (PSI 1-6); higher = more stable; settings: treatment: MLN4924 1 uM, 8 h; c terminus: a fixed tail appended
Measure Name: protein stability index
Number only, no unit.

Query string: State the recorded protein stability index for this entry: NHWVPACHSFNRAIHKKAKGTEAE [FBXO34]
Result string: 4.1

Query string: Consider the sequence EDLQDGDVRMGGSFRGAFSNSEKA [NET1] and give its measured protein stability index.
Result string: 5.25

Query string: What value of protein stability index has been recorded for this entry: KVSEGQADIMISFVRGDHRDNSPF [MMP1]
Result string: 3.09

Query string: Could you share which protein stability index value was measured for KKEKIIEDKTFGLKNKKGAKQQKF [ZC3H15] ?
Result string: 4.33

Query string: For the sequence QYYRWLNYGGVIKNYFQHREFSFT [PRIM1] , what protein stability index is on record?
Result string: 1.98

Query string: For QKLQDVLHEALQDYEAGQHMEDPR [ESRRG] , what is its reported protein stability index?
Result string: 5.13

Query string: Any idea what its protein stability index is? The sequence is SVAVAARHAQTISGHALRILIVDW [HDAC6]
Result string: 2.62

Query string: So what does the record say about protein stability index for VHLLLKKVLFALCALNALTTTVCL [FAM189A2] ?
Result string: 3.02

Query string: Look at this sequence and give its reported protein stability index. IFSQSSALILHQRIHSGKKPYACD [ZNF396]
Result string: 2.53

---

assay: protein stability index of a GFP-peptide fusion (GPS, HEK-293T) (PSI 1-6); higher = more stable; settings: treatment: MLN4924 1 uM, 8 h; c terminus: a fixed tail appended
Measure Name: protein stability index
Respond using a number only.

Query string: // protein stability index lookup, key: QLQDFNIPQAGGWGPWGPWGDCSR [ADAMTS4]
Result string: 3

Query string: I am curious: what protein stability index value has been reported for LNKCFIKVPREKDEPGKGGFWRID [FOXJ1] ?
Result string: 2.98

Query string: What value of measured protein stability index is listed for AAAEFSSLLRRIKGKLFTWNILKT [SLC35F2] ?
Result string: 2.94

---

Kindly supply the reported protein stability index values for the records listed here.
test: protein stability index of a GFP-peptide fusion (GPS, HEK-293T) (PSI 1-6); higher = more stable; conditions: treatment: DMSO; c terminus: a fixed tail appended

Query string: Returns the measured protein stability index for the input sequence. Input: DVRQNPCGSKACRRLFGPVDSEQL [CDKN1A]
Result string: 3.03

Query string: Could you tell me which protein stability index is on file for HKARTRPKARKQGVSPADMYRWKL [ADAMTSL2] ?
Result string: 3.32

Query string: So what does the record say about protein stability index for TKTEDRELVLRKDCPKIVEPHGKM [ZSCAN9] ?
Result string: 4.79

Query string: Which measured protein stability index value corresponds to FGYRPYDKNISPRENILVSLGAVG [SCD] ?
Result string: 2.03

Query string: Sample QLVLAYDYSREVNTTEELEALITD [FEM1A] — what was its protein stability index?
Result string: 3.53

Query string: Which protein stability index reading was recorded for the sequence RTISCHVQNGTYLQRVLQNCPWPM [EMID1] ?
Result string: 2.12

Query string: Which protein stability index is listed for PPENSDSGTGKKEKEKKNRKGKDK [EIF5] ?
Result string: 5.58

Query string: State the recorded protein stability index for this entry: MRGVAEVKEPCSLPMLSVDMENKE [SAMD13]
Result string: 5.32

Query string: Reported protein stability index for SYMLQDSLEHVQLFDLMRRMLEFD [CLK3] : what is it?
Result string: 2.35

Query string: Name the reported protein stability index value associated with the sequence GGAGSSEDDAQSRRDEQDDDDKGD [GOLPH3]
Result string: 5.57

Query string: Return reported protein stability index; argument: YRIRQVNIYYYLEDDSMSVIEPVV [EFHC1]
Result string: 2.87

Query string: Which protein stability index value belongs to PSGSSGSLSTSSSSSPPGTPSPAD [CEBPB] ?
Result string: 5.53

Query string: Query: protein stability index; subject: QRDVGWAALLILFAASLLTVFAWL [C2CD2L]
Result string: 2.94

Query string: protein stability index lookup needed for AADVWSLGVALFTMLAGHYPFQDS [TRIB3] , thanks.
Result string: 2.96

Query string: Reported protein stability index for ERILGPSHPDTSYYIRYRGAVYAD [FEM1A] : what is it?
Result string: 2.94

Query string: So what does the record say about protein stability index for SISEEGFHYLVFDLVTGGELFEDI [CAMK2B] ?
Result string: 2.32

Query string: Form field: reported protein stability index of QVRIRYLGERRAEPHSLLHLSRLC [SPSB2]
Result string: 2.34

Query string: So what's the measured protein stability index for this one? PDTMEKLRTHIDAIILALPEDLQG [DENND6A]
Result string: 3.02

Query string: Bench note: what protein stability index did IASEWFLIANRSYKVSAASSFFFS [SLC22A15] show?
Result string: 3.03

Query string: What value of protein stability index has been reported for the following sequence? MYEEEINETRRKHETRLVEVDSGR [LMNB1]
Result string: 5.04

Query string: Reported protein stability index, sequence MNHYKKTTLEIHNTEERQKRQVTH [PTPN9] : ____
Result string: 4.52

Query string: Looking for the measured protein stability index of EPGNFIPLFTPQSPVTATLSDEDD [CDC25A] , can you help?
Result string: 5.56

Query string: Which protein stability index value belongs to EEIDVDGKFIRLKNTSEQDQPMGG [LMNB1] ?
Result string: 5.15

Query string: Fill in the blank: the reported protein stability index of NTVKVQVLYPDGQAQMIHPKPADF [INTS4] is ____.
Result string: 3.05

Query string: I have this sequence here, AQDSIELLTTSGIQFKKHEEEGIE [CNOT7] , and I need its recorded protein stability index.
Result string: 5.46

Query string: Fill blank: measured protein stability index of the sequence YRDLAGGTGRSAKEQVLRKGTENL [FCHSD1] is ____.
Result string: 4.16

Query string: What does the record list as protein stability index for GGFDGSRRHTSMERYDPNIDQWSM [KLHL12] ?
Result string: 3.76

Query string: I'd like to know its protein stability index. The sequence in question is FSETHADPHNSRRGFFFSHVGWLL [SCD]
Result string: 2.66

Query string: Consider the sequence SCLLLQLRREKPSEEMVKMVLSRP [INTS3] and give its measured protein stability index.
Result string: 2.64

Query string: Field request: protein stability index | item: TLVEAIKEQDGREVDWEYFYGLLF [DFFB]
Result string: 2.46

Query string: Name the recorded protein stability index for GADGVMRTMAPEKLLKSMPILQGQ [SNAP91] .
Result string: 3.76

Query string: Any idea what protein stability index was measured for DEVIDVMQENITKVIERGERLDEL [VAMP4] ?
Result string: 4.77

Query string: Quick one: protein stability index for VYLANQAKNQSDEAKEAKGSGYEK [RTP4] ?
Result string: 4.96

Query string: // returns reported protein stability index for input GLQSAQPTEGQGSLLTNWPSVPPT [MYBL2]
Result string: 4.02

---

experiment: protein stability index of a GFP-peptide fusion (GPS, HEK-293T) (PSI 1-6); higher = more stable; details: treatment: MLN4924 1 uM, 8 h; c terminus: a fixed tail appended
Assign class by protein stability index: not lower than 4 means yes; lower than 4 means no.

Query string: Could you tell me if the measured protein stability index of WKIAPAMAAGNTVIAKPSELTSVT [ALDH8A1] reaches 4 or more?
Result string: no

Query string: Item QVRIRYLGERRAEPHSLLHLSRLC [SPSB2] with protein stability index of 4 or above?
Result string: no

Query string: State whether the measured protein stability index reaches 4, counting equality as reaching it, for LEEKRLTWRLPDVSEAGGSGRLSA [FCHO1]
Result string: yes

Query string: Would you say GVVVCEADTGRIHRFVEKPQVFVS [GMPPB] shows protein stability index at minimum 4?
Result string: no

Query string: Please check the record LPCNPCATTNASGNSCGPCGTSQK [KRT34] and state if its protein stability index is at or above 4.
Result string: yes

Query string: Given the entry IPDAFWWAVVTMTTVGYGDMKPIT [KCNA4] , answer whether its protein stability index meets or surpasses 4.
Result string: no

Query string: Is it the case that VPWSQCLQNFLLHGTKNVTNSSSL [WSB1] has protein stability index reaching or exceeding 4?
Result string: no

Query string: Decide: is the reported value of protein stability index for GKGEARARLKRSQSFGVASASSIK [SMTNL2] equal to or greater than 4?
Result string: yes

Query string: Threshold query (protein stability index >= 4) on NTLRSQLGDRLNVEVDTAPTVDLN [KRT34]
Result string: yes

Query string: Can DRTSLATFHEGKHNISHMSMDIAR [WDFY1] be said to have protein stability index at or above 4?
Result string: no

Query string: Given YDYVREFKRSTGTWHHTKPLLPSD [GAN] , state whether its protein stability index is at least 4.
Result string: no

Query string: Reported protein stability index reaches at least 4 for QRDVGWAALLILFAASLLTVFAWL [C2CD2L] ?
Result string: no

Query string: Check if protein stability index >= 4 (inclusive). Item: SISKLSPFSEFFKLRFNRKKKGMY [PWWP2B]
Result string: no

Query string: Reported protein stability index reaches at least 4 for HHPENGEETVTMLEDVERELDGPK [ZNF396] ?
Result string: yes

Query string: Has PPLSGALASITETIQVHRRYWRSL [HDAC6] a recorded protein stability index greater than or equal to 4?
Result string: no

Query string: Check if protein stability index >= 4 (inclusive). Item: DKVIMKLGKTNAKAVSEMRQKIWN [DYNC2LI1]
Result string: no

Query string: In plain terms: is recorded protein stability index at least 4 for KVQFNLQFTKPNASLGDVQSGATI [SASS6] ?
Result string: no

Query string: hey, is protein stability index for this one >= 4? NLRATDVRLMRQLLVINESIESIK [LURAP1L]
Result string: no

Query string: Check if protein stability index >= 4 (inclusive). Item: VARTHLTEDTPKVNADIEKVNQNQ [NSDHL]
Result string: yes

Query string: Determine whether this sequence has protein stability index no lower than 4: HPTPFLAFLRRVKTCNPPDAGPMV [PTPRD]
Result string: no

Query string: Check the entry EQKAAGSASAKRVWNMTATRPKKM [FATE1] : does protein stability index equal or exceed 4?
Result string: yes

Query string: # check: protein stability index of IGMSAAGMGLTGTMGMGMPNIAMT [CLINT1] is greater than or equal to 4
Result string: no

Query string: Hi team, for YSIQERRPQLPQVLQHVRLPLLSP [KLHL20] , is the recorded protein stability index at or above 4?
Result string: no

Query string: Reported protein stability index at or above 4? SSRGAPRGGGRGGSRSDRGGGRSR [RBMX]
Result string: yes

Query string: Exam item: decide whether the reported protein stability index for IPGEHFWLLLLTRGLVGVGEASYS [SPNS1] is at least 4.
Result string: no

Query string: Exam item: decide whether the reported protein stability index for VYLANQAKNQSDEAKEAKGSGYEK [RTP4] is at least 4.
Result string: yes

Query string: Quick check: does EMQIENLKEELAYLKKNHEEEMNA [KRT17] have protein stability index greater than or equal to 4?
Result string: yes

Query string: For this sequence, is measured protein stability index 4 or higher? KFDHIEVRDGPFGFSPIIGRFCGQ [NETO1]
Result string: no

Query string: Entry AEKKREAKQRAKEAQERELRKREK [LRRC59] : is its protein stability index no less than 4?
Result string: yes

Query string: Dear colleague, could you confirm whether VRKKRFRKTQKKVPDVKEMEKSSF [TAF7L] has protein stability index at or above 4?
Result string: yes

Query string: hey, is protein stability index for this one >= 4? VFLGNKRSLSERTVDKCFGRKKYD [SPATS1]
Result string: no

Query string: Please indicate if the recorded protein stability index for IGSSSEKEIDDVIDEIISLESSYN [TFE3] meets or exceeds 4.
Result string: yes

Query string: Given LPEPSKRGPPHGWPKLCPCLRSGI [MYCL] , state whether its protein stability index is at least 4.
Result string: no

Query string: Hello, I need to know if HQMGVVHRDLKPENLLLASKLKGA [CAMK2A] has measured protein stability index not below 4. Thanks!
Result string: no

Query string: Identify whether the reported protein stability index of the following sequence is 4 or greater: EQSSCTMTPDIHELVENIKSVLKS [FAM189A2]
Result string: no

Query string: Form field: protein stability index at least 4? Entry: TANTFRVMFKEPIEILPNVCYTAC [BTBD1]
Result string: no

Query string: Identify whether the reported protein stability index of the following sequence is 4 or greater: QLLFVIFLLLYLFTLGTNAIIIST [OR10K2]
Result string: no

Query string: Hi team, for SMNWGINLLISLTFLTVTDLIGLP [SLC2A12] , is the recorded protein stability index at or above 4?
Result string: no

Query string: Hi, just wondering whether PLVEKKRRARINESLQELRLLLAG [HES6] shows protein stability index of 4 or higher.
Result string: no

Query string: I'd appreciate it if you could say whether SEATLPAQMSTLHVSPPPSADPAR [PDLIM4] has protein stability index at least equal to 4.
Result string: yes
